type: in vivo, human; conditions: human, plasma, 10 mg
quantity: Cmax (ng/mL)
Report as a plain number; the unit ng/mL is understood.

Input: Report measured Cmax; entry is `Br.Cc1ccc(Sc2ccccc2N2CCNCC2)c(C)c1`
Output: 4.92

* * *

format: in vivo, human; conditions: human, plasma, 20 mg
quantity: AUC(0-t) (ng·h/mL)
Enter your answer as a number in ng·h/mL; do not include the unit.

Input: Name the recorded AUC(0-t) of the molecule listed here: `Br.Cc1ccc(Sc2ccccc2N2CCNCC2)c(C)c1`
Output: 438

* * *

assay type: in vivo, human; conditions: human, plasma, 10 mg
quantity: AUC(0-t) (ng·h/mL)
Entry rule: numbers only, all in ng·h/mL.

Input: Using the record for `Br.Cc1ccc(Sc2ccccc2N2CCNCC2)c(C)c1` , state its measured AUC(0-t).
Output: 262
